- Test system: Candida parapsilosis
- TEST_METHOD_NOTES: ≥ marks a high value that may be exact or a test limit, other limits are often not marked, values filed in µg/mL are converted to µM

{"columns": ["COMPOUND", "INEQUALITY_SIGN", "MIC [µM]"],
 "data": [
  ["CC[C@H](C)[C@H](NC(=O)[C@H](Cc1ccccc1)NC(=O)[C@H](CCCCN)NC(=O)[C@H](CC(C)C)NC(=O)[C@H](CC(C)C)NC(=O)[C@@H](N)CCCN=C(N)N)C(=O)N[C@@H](CCCCN)C(=O)N[C@@H](CCCCN)C(=O)N[C@@H](CC(C)C)C(=O)N[C@@H](CC(C)C)C(N)=O [RLLKFIKKLL]", "=", 23.6],
  ["CC[C@H](C)[C@@H]1NC(=O)CNC(=O)[C@H](CCCCN)NC(=O)[C@H](Cc2ccc(O)cc2)NC(=O)[C@@H]2CSSC[C@H](NC1=O)C(=O)N[C@@H](Cc1ccc(O)cc1)C(=O)N[C@@H](CCCCN)C(=O)N[C@@H](CCCCN)C(=O)N[C@H](C(=O)N[C@@H](CCCCN)C(N)=O)CSSC[C@H](NC(=O)[C@H](Cc1c[nH]c3ccccc13)NC(=O)[C@@H](N)CCCN=C(N)N)C(=O)N[C@@H](Cc1ccccc1)C(=O)N[C@@H](CCCCN)C(=O)N[C@@H](C(C)C)C(=O)N2 [RWCFKVCYKGICYKKCK]", "=", 15],
  ["CC[C@H](C)[C@H](NC(=O)[C@H](CC(C)C)NC(=O)[C@H](CCC(=O)O)NC(=O)[C@H](CO)NC(=O)[C@H](CCCN=C(N)N)NC(=O)[C@@H](N)CO)C(=O)N[C@H](C(=O)N[C@@H](Cc1cnc[nH]1)C(=O)N[C@@H](CCC(N)=O)C(=O)N[C@@H](CCCN=C(N)N)C(=O)N[C@@H](CCSC)C(=O)N[C@@H](CCCCN)C(N)=O)C(C)C [SRSELIVHQRMK]", "≥", 173],
  ["CC[C@H](C)[C@H](NC(=O)[C@H](CCCCN)NC(=O)[C@H](CCCCN)NC(=O)[C@H](CC(C)C)NC(=O)[C@H](CC(C)C)NC(=O)CN)C(=O)N[C@@H](CCCCN)C(=O)N[C@@H](CCCN=C(N)N)C(=O)N[C@@H](CC(C)C)C(=O)N[C@@H](CC(C)C)C(N)=O [GLLKKIKRLL]", "=", 25.4]
]}

====

In this section we review reported log10 of MIC values for a set of compounds.
- Tested on: Candida albicans ATCC 10231
OBSERVED_PROPERTY: log10 of MIC (log10 of the value in µM)

{"columns": ["MOLECULE_SMILES", "TEST_TARGET", "log10 of MIC"],
 "data": [
  ["CC(C)[C@H](NC(=O)[C@H](CCCCN)NC(=O)[C@@H](NC(=O)[C@H](CCC(N)=O)NC(=O)[C@H](CCCCN)NC(=O)[C@H](Cc1c[nH]c2ccccc12)NC(=O)[C@@H](N)CCCN=C(N)N)C(C)C)C(=O)N[C@@H](CCCCN)C(=O)N[C@@H](CCCN=C(N)N)C(=O)O", "Candida albicans ATCC 10231", 1.48],
  ["C[C@H](NC(=O)[C@H](CCCCN)NC(=O)[C@H](Cc1c[nH]c2ccccc12)NC(=O)CNC(=O)[C@H](Cc1c[nH]c2ccccc12)NC(=O)[C@H](Cc1c[nH]c2ccccc12)NC(=O)[C@H](CCCCN)NC(=O)[C@H](CCCCN)NC(=O)CN)C(=O)N[C@@H](CCCCN)C(N)=O", "Candida albicans ATCC 10231", 1.39],
  ["CC(C)[C@H](NC(=O)[C@H](CCCCN)NC(=O)CNC(=O)CNC(=O)[C@H](CCC(N)=O)NC(=O)[C@H](CCCCN)NC(=O)CNC(=O)[C@H](CCCN=C(N)N)NC(=O)CNC(=O)[C@@H](N)CO)C(=O)N[C@@H](CCCN=C(N)N)C(=O)N[C@@H](C)C(=O)N[C@@H](CCCCN)C(=O)N[C@@H](C)C(=O)N[C@@H](CCCCN)C(=O)N[C@H](C(=O)N[C@@H](CCCN=C(N)N)C(=O)N[C@@H](CO)C(=O)N[C@@H](CO)C(=O)O)[C@@H](C)O", "Candida albicans ATCC 10231", 1.21],
  ["CC[C@H](C)[C@H](NC(=O)CNC(=O)[C@H](CCCN=C(N)N)NC(=O)[C@@H](NC(=O)[C@H](CC(C)C)NC(=O)[C@H](CO)NC(=O)CNC(=O)[C@@H](NC(=O)[C@@H](N)CC(C)C)[C@@H](C)CC)C(C)C)C(=O)N[C@@H](CC(C)C)C(=O)N1CCC[C@H]1C(=O)N[C@@H](CC(C)C)C(=O)N[C@@H](Cc1ccccc1)C(N)=O", "Candida albicans ATCC 10231", 2.26],
  ["C[C@H](NC(=O)[C@H](Cc1ccccc1)NC(=O)[C@H](CCCCN)NC(=O)[C@H](CCCCN)NC(=O)[C@H](C)NC(=O)[C@H](Cc1ccccc1)NC(=O)[C@H](CCCCN)NC(=O)[C@H](CCCCN)NC(=O)[C@H](C)NC(=O)[C@H](Cc1ccccc1)NC(=O)[C@@H](N)CCCCN)C(=O)N[C@@H](CCCCN)C(=O)O", "Candida albicans ATCC 10231", 2.41]
]}

====

MIC values for the compounds below.
- Tested on: Salmonella enterica subsp. enterica serovar Typhimurium C77-31

{"columns": ["MOLECULE_SMILES", "TEST_TARGET", "MIC"],
 "data": [
  ["CC(C)C[C@H](NC(=O)[C@@H]1CCCN1C(=O)[C@H](CCCN=C(N)N)NC(=O)[C@H](CC(C)C)NC(=O)[C@H](CC(C)C)NC(=O)[C@@H]1CCCN1C(=O)[C@H](CCCN=C(N)N)NC(=O)[C@H](CC(C)C)NC(=O)[C@H](CC(C)C)NC(=O)[C@@H]1CCCN1C(=O)[C@H](CCCN=C(N)N)NC(=O)[C@H](CC(C)C)NC(=O)[C@H](CC(C)C)NC(=O)[C@@H]1CCCN1C(=O)[C@H](CCCN=C(N)N)NC(=O)[C@@H](N)CC(C)C)C(N)=O", "Salmonella enterica subsp. enterica serovar Typhimurium C77-31", "≥ 64 µM"],
  ["CC(C)C[C@H](NC(=O)[C@@H]1CCCN1C(=O)[C@H](CCCCN)NC(=O)[C@H](CC(C)C)NC(=O)[C@H](CC(C)C)NC(=O)[C@@H]1CCCN1C(=O)[C@H](CCCCN)NC(=O)[C@H](CC(C)C)NC(=O)[C@H](CC(C)C)NC(=O)[C@@H]1CCCN1C(=O)[C@H](CCCCN)NC(=O)[C@H](CC(C)C)NC(=O)[C@H](CC(C)C)NC(=O)[C@@H]1CCCN1C(=O)[C@H](CCCCN)NC(=O)[C@@H](N)CC(C)C)C(N)=O", "Salmonella enterica subsp. enterica serovar Typhimurium C77-31", "≥ 64 µM"],
  ["CC[C@H](C)[C@H](NC(=O)[C@@H]1CCCN1C(=O)[C@@H]1CCCN1)C(=O)N[C@H](C(=O)NCC(=O)N[C@@H](CO)C(=O)N[C@H](C(=O)N1CCC[C@H]1C(=O)N[C@@H](CC(C)C)C(=O)NCC(=O)N[C@@H](CS)C(=O)NCC(N)=O)[C@@H](C)CC)C(C)C", "Salmonella enterica subsp. enterica serovar Typhimurium C77-31", "≥ 128 µM"],
  ["NCCCC[C@H](NC(=O)[C@H](CCCCN)NC(=O)[C@H](CCCN=C(N)N)NC(=O)[C@H](CCCN=C(N)N)NC(=O)[C@H](Cc1c[nH]c2ccccc12)NC(=O)[C@H](CCC(N)=O)NC(=O)[C@H](Cc1c[nH]c2ccccc12)NC(=O)[C@H](CCCN=C(N)N)NC(=O)[C@H](CCCN=C(N)N)NC(=O)[C@H](CCCCN)NC(=O)[C@@H](N)CCCCN)C(N)=O", "Salmonella enterica subsp. enterica serovar Typhimurium C77-31", "≥ 128 µM"],
  ["CC[C@H](C)[C@H](NC(=O)[C@H](CCCCN)NC(=O)[C@H](CCCCN)NC(=O)[C@H](Cc1ccccc1)NC(=O)[C@H](CC(C)C)NC(=O)[C@H](CCCCN)NC(=O)[C@H](Cc1c[nH]c2ccccc12)NC(=O)[C@@H](N)CCCCN)C(=O)N[C@@H](Cc1c[nH]c2ccccc12)C(=O)N[C@@H](Cc1c[nH]c2ccccc12)C(=O)N1CCC[C@H]1C(=O)N[C@@H](Cc1ccccc1)C(=O)N[C@@H](CC(C)C)C(=O)N[C@@H](CCCN=C(N)N)C(=O)N[C@@H](CCCN=C(N)N)C(N)=O", "Salmonella enterica subsp. enterica serovar Typhimurium C77-31", "2 µM"]
]}
